A short record of pIC50 observed with LIM domain kinase 2 (Homo sapiens) follows.
Sequence (P53671 whole entry, the tested form may be a part): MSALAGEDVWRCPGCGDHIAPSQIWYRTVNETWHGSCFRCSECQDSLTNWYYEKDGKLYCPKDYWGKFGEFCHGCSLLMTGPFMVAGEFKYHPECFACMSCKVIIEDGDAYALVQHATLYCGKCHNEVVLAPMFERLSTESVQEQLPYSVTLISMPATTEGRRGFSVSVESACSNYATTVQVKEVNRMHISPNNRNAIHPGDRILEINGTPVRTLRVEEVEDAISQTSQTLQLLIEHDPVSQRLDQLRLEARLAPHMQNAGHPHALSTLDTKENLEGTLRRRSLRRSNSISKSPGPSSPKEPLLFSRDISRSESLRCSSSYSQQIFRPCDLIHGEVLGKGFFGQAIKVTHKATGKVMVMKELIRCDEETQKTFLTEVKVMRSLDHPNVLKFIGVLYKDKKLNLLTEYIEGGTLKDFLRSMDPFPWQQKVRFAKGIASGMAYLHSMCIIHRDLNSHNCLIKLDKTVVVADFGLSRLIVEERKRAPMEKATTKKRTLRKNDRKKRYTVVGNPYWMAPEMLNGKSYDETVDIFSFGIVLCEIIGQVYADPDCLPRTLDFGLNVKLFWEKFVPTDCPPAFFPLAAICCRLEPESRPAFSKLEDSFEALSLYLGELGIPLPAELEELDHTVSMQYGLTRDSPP
Give bare numbers, as −log10 of the molar value.

molecule: CN1C(=O)[C@@H](N2CCc3cn(CC4CCS(=O)(=O)CC4)nc3C2=O)COc2ccccc21 [TP-030n]
pIC50: 6.00

Now for the molecule whose pIC50 we want.
Query: Return reported pIC50; argument: CN1C(=O)[C@@H](N2CCc3cn(Cc4ccccc4)nc3C2=O)COc2ccccc21
Result: 6.00

----------
Assay read-out pIC50; system under study: Muscle, skeletal receptor tyrosine-protein kinase (Homo sapiens, UniProt O15146).
Sequence (O15146 whole entry): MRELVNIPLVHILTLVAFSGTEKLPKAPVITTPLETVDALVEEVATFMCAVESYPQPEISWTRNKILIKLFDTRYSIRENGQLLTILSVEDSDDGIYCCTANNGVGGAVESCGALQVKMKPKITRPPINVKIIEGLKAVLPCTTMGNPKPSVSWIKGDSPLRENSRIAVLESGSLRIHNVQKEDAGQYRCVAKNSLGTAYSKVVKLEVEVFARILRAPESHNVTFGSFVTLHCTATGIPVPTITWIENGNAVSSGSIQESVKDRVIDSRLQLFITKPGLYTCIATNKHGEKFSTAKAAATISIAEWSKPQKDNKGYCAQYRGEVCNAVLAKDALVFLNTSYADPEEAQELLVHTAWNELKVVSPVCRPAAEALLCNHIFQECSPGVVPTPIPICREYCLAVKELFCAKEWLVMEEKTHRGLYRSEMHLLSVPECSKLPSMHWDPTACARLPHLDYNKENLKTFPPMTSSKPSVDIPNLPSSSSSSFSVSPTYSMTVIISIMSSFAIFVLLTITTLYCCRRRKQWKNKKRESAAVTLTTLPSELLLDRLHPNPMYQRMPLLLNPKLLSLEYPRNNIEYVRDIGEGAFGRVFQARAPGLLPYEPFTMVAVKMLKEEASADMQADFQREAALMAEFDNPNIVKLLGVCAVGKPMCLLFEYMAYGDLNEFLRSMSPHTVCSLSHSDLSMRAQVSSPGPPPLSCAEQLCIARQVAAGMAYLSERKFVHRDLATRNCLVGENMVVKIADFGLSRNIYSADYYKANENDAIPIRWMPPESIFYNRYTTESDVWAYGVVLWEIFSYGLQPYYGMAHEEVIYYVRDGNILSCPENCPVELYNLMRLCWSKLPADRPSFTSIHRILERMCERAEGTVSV
Numbers only, as −log10 of the molar value.

molecule: CN1C(=O)[C@@H](N2CCc3cn(Cc4ccccc4)nc3C2=O)COc2ccccc21
systemTested: Muscle, skeletal receptor tyrosine-protein kinase (Homo sapiens, UniProt O15146)
measured: 6.00

Here is another molecule to look at.
Query: Find the recorded pIC50 belonging to CN1C(=O)[C@@H](N2CCc3cn(CC4CCS(=O)(=O)CC4)nc3C2=O)COc2ccccc21 [TP-030n] and report it.
Result: 6.00

----------
Here we list compounds with their recorded IC50 when tested on Ephrin type-A receptor 8 (Homo sapiens, UniProt P29322).
Sequence (P29322 whole entry): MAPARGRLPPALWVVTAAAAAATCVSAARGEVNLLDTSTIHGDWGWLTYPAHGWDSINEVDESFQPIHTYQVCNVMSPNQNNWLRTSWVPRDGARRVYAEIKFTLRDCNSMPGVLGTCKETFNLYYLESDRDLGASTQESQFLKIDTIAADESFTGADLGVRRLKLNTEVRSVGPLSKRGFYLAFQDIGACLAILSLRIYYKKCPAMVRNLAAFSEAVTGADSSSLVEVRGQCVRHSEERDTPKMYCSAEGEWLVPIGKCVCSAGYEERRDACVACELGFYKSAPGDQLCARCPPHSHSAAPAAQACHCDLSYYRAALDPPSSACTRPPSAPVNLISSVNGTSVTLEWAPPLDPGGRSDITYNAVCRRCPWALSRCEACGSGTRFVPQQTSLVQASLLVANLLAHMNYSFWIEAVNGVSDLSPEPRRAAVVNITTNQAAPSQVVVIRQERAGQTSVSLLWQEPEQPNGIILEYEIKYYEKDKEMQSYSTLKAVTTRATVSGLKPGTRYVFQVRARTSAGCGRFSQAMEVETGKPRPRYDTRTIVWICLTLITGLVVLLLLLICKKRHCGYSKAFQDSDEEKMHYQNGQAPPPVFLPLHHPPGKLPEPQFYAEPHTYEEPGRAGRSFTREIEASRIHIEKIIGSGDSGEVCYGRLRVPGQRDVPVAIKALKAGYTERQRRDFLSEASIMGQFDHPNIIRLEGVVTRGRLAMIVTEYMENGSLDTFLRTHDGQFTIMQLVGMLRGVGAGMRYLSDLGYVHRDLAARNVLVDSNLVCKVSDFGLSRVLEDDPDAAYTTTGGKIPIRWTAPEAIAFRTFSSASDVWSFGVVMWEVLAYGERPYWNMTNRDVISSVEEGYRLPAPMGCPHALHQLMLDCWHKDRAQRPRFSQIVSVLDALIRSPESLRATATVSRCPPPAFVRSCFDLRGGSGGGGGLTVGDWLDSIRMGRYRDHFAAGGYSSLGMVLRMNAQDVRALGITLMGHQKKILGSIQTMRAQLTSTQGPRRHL
Answers are plain numbers, in nM.

compound: CN1C(=O)[C@@H](N2CCc3cn(CC4CCS(=O)(=O)CC4)nc3C2=O)COc2ccccc21 [TP-030n]
readout: IC50
measured: 1000

Please examine the following record next.
Query: Which IC50 is reported with Ephrin type-A receptor 8 (Homo sapiens, UniProt P29322) for this entry: CN1C(=O)[C@@H](N2CCc3cn(Cc4ccccc4)nc3C2=O)COc2ccccc21 ?
Result: 1000

----------
# systemTested: Proto-oncogene tyrosine-protein kinase Src (Homo sapiens, UniProt P12931)
# Sequence (P12931 2-536 limits assumed): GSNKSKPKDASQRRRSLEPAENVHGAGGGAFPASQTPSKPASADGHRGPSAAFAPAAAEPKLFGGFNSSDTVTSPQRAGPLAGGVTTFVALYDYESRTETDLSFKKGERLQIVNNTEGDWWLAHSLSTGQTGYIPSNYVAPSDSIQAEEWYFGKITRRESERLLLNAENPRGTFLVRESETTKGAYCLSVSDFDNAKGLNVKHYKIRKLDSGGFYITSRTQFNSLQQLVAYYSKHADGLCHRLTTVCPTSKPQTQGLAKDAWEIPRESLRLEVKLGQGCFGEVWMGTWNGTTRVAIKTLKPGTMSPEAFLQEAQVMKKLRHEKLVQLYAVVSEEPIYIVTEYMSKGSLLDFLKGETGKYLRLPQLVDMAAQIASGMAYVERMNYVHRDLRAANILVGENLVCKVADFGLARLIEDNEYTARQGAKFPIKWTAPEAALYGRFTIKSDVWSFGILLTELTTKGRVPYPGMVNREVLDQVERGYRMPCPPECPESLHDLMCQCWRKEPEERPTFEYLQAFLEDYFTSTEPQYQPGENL
readout: IC50

Query: Which IC50 value belongs to CN1C(=O)[C@@H](N2CCc3cn(CC4CCS(=O)(=O)CC4)nc3C2=O)COc2ccccc21 [TP-030n] ?
Result: 1000 nM

----------
# systemTested: UniProt P57058
# Sequence (P57058 whole entry): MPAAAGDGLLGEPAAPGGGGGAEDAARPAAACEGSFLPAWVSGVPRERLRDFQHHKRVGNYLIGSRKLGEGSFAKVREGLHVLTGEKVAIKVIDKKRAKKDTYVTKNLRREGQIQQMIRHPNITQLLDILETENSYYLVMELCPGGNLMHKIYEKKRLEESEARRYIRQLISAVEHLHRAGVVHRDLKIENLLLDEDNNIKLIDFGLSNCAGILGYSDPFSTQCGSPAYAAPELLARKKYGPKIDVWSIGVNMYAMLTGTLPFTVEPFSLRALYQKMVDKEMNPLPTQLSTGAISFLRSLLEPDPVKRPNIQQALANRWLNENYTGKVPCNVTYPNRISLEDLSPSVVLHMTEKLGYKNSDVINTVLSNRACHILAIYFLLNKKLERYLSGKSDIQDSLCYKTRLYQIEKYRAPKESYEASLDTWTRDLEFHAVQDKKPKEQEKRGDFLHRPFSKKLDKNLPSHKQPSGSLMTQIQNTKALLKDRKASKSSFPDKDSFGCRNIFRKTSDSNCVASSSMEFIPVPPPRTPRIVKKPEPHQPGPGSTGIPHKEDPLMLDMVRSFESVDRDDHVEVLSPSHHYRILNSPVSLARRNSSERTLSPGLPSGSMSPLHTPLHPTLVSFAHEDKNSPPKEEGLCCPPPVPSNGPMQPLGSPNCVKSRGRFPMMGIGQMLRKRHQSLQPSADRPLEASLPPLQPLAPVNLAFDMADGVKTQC
# testMethodNotes: HUNK(HUNKLGRN) Takeda global kinase panel
So I've got a bunch of compounds here, and I need their pIC50 values.
Give bare numbers, as −log10 of the molar value.

compound: CN1C(=O)[C@@H](N2CCc3cn(Cc4ccccc4)nc3C2=O)COc2ccccc21 [TP-030-1]
systemTested: UniProt P57058
pIC50: 6.00

As a next step, examine the compound that follows.
Query: Look at this compound and give its reported pIC50. CN1C(=O)[C@@H](N2CCc3cn(CC4CCS(=O)(=O)CC4)nc3C2=O)COc2ccccc21 [TP-030n]
Result: 6.00
